- assay_system: DNA topoisomerase 1 (Homo sapiens) (UniProt P11387)
- Sequence (whole entry): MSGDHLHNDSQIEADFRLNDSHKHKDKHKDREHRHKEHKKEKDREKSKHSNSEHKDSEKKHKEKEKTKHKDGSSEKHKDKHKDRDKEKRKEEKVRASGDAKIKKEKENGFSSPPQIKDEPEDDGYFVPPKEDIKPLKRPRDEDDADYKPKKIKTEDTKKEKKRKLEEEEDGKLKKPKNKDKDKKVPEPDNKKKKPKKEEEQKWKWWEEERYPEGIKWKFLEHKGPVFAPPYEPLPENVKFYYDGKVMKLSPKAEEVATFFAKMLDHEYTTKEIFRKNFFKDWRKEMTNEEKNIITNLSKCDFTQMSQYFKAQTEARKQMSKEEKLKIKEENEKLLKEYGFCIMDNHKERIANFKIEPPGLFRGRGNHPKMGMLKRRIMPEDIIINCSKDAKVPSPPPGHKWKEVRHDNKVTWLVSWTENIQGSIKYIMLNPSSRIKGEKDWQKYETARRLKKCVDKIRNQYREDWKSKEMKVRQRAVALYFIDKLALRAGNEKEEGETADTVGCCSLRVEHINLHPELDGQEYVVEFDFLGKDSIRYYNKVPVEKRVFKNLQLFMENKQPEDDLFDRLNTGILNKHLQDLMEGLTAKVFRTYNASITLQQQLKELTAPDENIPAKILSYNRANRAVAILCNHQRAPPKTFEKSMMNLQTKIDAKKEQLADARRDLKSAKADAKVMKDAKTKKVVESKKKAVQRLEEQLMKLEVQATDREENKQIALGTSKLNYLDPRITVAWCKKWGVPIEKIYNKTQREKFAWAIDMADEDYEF
- experimental_protocol: Inhibition of human recombinant topoisomerase 1 assessed as inhibition of relaxation of supercoiled pBR322 DNA at 100 uM by agarose gel electrophoresis
Would you please tag the item criterion met when its inhibition is 8% or above, and criterion not met when it is below?

Could you verify whether the entry Clc1cccc(-c2cc(-c3ccc(Cl)o3)cc(-c3ccsc3)n2)c1 shows inhibition of no less than 8%? criterion not met

Could you verify whether the entry Cc1ccc(-c2cc(-c3ccc(Cl)o3)cc(-c3ccsc3)n2)cc1 shows inhibition of no less than 8%? criterion not met

Could you verify whether the entry Clc1ccc(-c2cc(-c3ccco3)cc(-c3cccs3)n2)cc1 shows inhibition of no less than 8%? criterion not met

Could you verify whether the entry Clc1ccc(-c2cc(-c3ccco3)nc(-c3cccs3)c2)o1 shows inhibition of no less than 8%? criterion met

Could you verify whether the entry Clc1cccc(-c2cc(-c3ccc(Cl)o3)cc(-c3cccs3)n2)c1 shows inhibition of no less than 8%? criterion met

Could you verify whether the entry Clc1ccc(-c2cc(-c3ccsc3)nc(-c3ccccc3Cl)c2)o1 shows inhibition of no less than 8%? criterion not met

Could you verify whether the entry Clc1ccc(-c2cc(-c3cccnc3)nc(-c3ccsc3)c2)o1 shows inhibition of no less than 8%? criterion not met

Could you verify whether the entry Clc1ccc(-c2cc(-c3ccsc3)nc(-c3ccccn3)c2)o1 shows inhibition of no less than 8%? criterion not met

Could you verify whether the entry Clc1ccc(-c2cc(-c3ccc(Cl)o3)cc(-c3ccsc3)n2)cc1 shows inhibition of no less than 8%? criterion met

Could you verify whether the entry Clc1ccc(-c2cc(-c3cccs3)nc(-c3ccccc3Cl)c2)o1 shows inhibition of no less than 8%? criterion met

Could you verify whether the entry Clc1ccc(-c2cc(-c3cccnc3)nc(-c3cccs3)c2)o1 shows inhibition of no less than 8%? criterion met

Could you verify whether the entry Cc1ccc(-c2cc(-c3ccc(Cl)o3)cc(-c3cccs3)n2)cc1 shows inhibition of no less than 8%? criterion met

Could you verify whether the entry Clc1ccc(-c2cc(-c3ccc(Cl)o3)cc(-c3cccs3)n2)cc1 shows inhibition of no less than 8%? criterion met

Could you verify whether the entry Cc1ccc(-c2cc(-c3ccc(Cl)o3)cc(-c3ccsc3)n2)o1 shows inhibition of no less than 8%? criterion met

Could you verify whether the entry Clc1ccc(-c2cc(-c3ccoc3)cc(-c3cccs3)n2)cc1 shows inhibition of no less than 8%? criterion not met

Could you verify whether the entry Clc1ccc(-c2cc(-c3ccoc3)cc(-c3ccsc3)n2)cc1 shows inhibition of no less than 8%? criterion not met

Could you verify whether the entry Cc1ccc(-c2cc(-c3ccoc3)cc(-c3ccsc3)n2)cc1 shows inhibition of no less than 8%? criterion met

Could you verify whether the entry Cc1ccccc1-c1cc(-c2ccc(Cl)o2)cc(-c2ccsc2)n1 shows inhibition of no less than 8%? criterion not met

Could you verify whether the entry Cc1cccc(-c2cc(-c3ccc(Cl)o3)cc(-c3ccsc3)n2)c1 shows inhibition of no less than 8%? criterion not met
